B1: SMG5 (parent)
chain: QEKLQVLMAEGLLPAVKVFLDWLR

# Variants of: B1
# assay_summary: protein stability index of a GFP-peptide fusion (GPS, HEK-293T) (PSI 1-6); higher = more stable;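 also: lentivirally expressed fusions sorted by FACS into six bins by GFP to DsRed ratio, PSI derived from sequencing read proportions per bin multiplied by bin number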
# cond: c terminus: a fixed tail appended
test_readout: protein stability index

R24M	1.89
L13C	2.25
V6P	2
E2V	2.56
K17S	1.82

### Prompt Look at this variant and give its reported protein stability index. "L7E"
### Response 2

### Prompt Data request, read-out protein stability index, for "A15E"
### Response 2

### Prompt Fill in: protein stability index of "R24T" is ___
### Response 1.88

### Prompt Reported protein stability index, variant "P14V" : ____
### Response 1.42

### Prompt Recorded protein stability index of "G11A" , please.
### Response 2.28

### Prompt Fill blank: measured protein stability index of the variant "R24S" is ____.
### Response 2.62
